- TEST_NAME: activators of adaptive XBP1 UPR arm, primary screen, cell-based, CHO-XBP1 luciferase reporter, luminescence, uHTS (AID 463104);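 also: 100% = tunicamycin at 10 µg/mL and 0% = DMSO only wells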
- COND: IRE1-XBP1 UPR activation, at 20 µM, stronger effect = higher value, percent of tunicamycin response, DMSO as zero
The campaign covered roughly 330,000 compounds. About 1,100 (0.33%) were called active. The sample holds actives, similar compounds and a random draw of the others, so the mix is not that of the screen.

[
  {
    "MOLECULE": "OC(CNCC1CCCO1)Cn1c2ccc(Br)cc2c2cc(Br)ccc21 (stereo not given)",
    "activation / %": 69.6
  },
  {
    "MOLECULE": "COc1cc(C(=O)NCC(c2ccco2)N2CCCC2)ccc1OCc1ccccc1 (stereo not given)",
    "activation / %": -1.2
  },
  {
    "MOLECULE": "Nc1ccc(S(=O)(=O)Nc2nccc(/C=C/c3ccc(Br)s3)n2)cc1",
    "activation / %": -1.07
  },
  {
    "MOLECULE": "CS(=O)(=O)N(CC(=O)N/N=C/c1ccccn1)c1ccc(Oc2ccccc2)cc1",
    "activation / %": 1.21
  },
  {
    "MOLECULE": "CC(=O)N1CCC(N(C(=O)Nc2ccc(Cl)cc2)C(C)C)CC1",
    "activation / %": 2
  },
  {
    "MOLECULE": "CC(=NCc1ccc2c(c1)OCO2)C1=C(O)c2ccccc2C1=O",
    "activation / %": 1.05
  },
  {
    "MOLECULE": "CC(=O)Nc1ccccc1Sc1ccc2c3c(cccc13)C(=O)N(c1ccc(C)cc1)C2=O",
    "activation / %": 33.8
  },
  {
    "MOLECULE": "COCCNC(=O)c1ccc(Cn2c(SCC(=O)NCC3CCCO3)nc3ccc(Br)cc3c2=O)cc1 (stereo not given)",
    "activation / %": -6.18
  },
  {
    "MOLECULE": "CSc1ccccc1NC(=O)C(C)N1C(=O)c2ccccc2S1(=O)=O (stereo not given)",
    "activation / %": 0.16
  },
  {
    "MOLECULE": "CCCN1CCn2c3c(c4cc(Br)ccc42)CCCC31 (stereo not given)",
    "activation / %": -0.93
  }
]
